Quick list: melting point per entry.
ENDPOINT NAME: melting point

# COMPOUND, ENDPOINT NAME, READOUT VALUE
records = [
    ("OC1(c2ccccc2)c2ccccc2C2=NC3CCCCC3N21 (stereo not drawn)", "melting point", "176 to 178 °C"),
    ("COC(=O)[C@@H]1C[C@H](O)C(=O)[C@@H]2[C@@]3(C)C[C@@H](c4ccoc4)OC(=O)[C@H]3CC[C@]21C", "melting point", "211 to 214 °C"),
    ("OCc1cc(N2CCOCC2)ncn1", "melting point", "138 °C"),
    ("O=C(O)c1ccc(Oc2ccc(Oc3ccc(C(=O)O)c(C(=O)O)c3)c(P(=O)(c3ccccc3)c3ccccc3)c2)cc1C(=O)O", "melting point", "212 to 218 °C"),
    ("Cc1cccc(N2CCN(Cc3n[nH]c4ccccc34)CC2)c1", "melting point", "132 to 134 °C"),
    ("CC1(C)OCC(C(N)=O)CO1", "melting point", "132 to 134 °C"),
    ("CC(=O)N1CCC(Nc2nc3ccccc3n2Cc2ccc(CO)o2)CC1", "melting point", "214 °C"),
    ("COc1cc(C=O)c(CCC(=O)O)c(C=O)c1O", "melting point", "164 to 166 °C"),
    ("COC(=O)c1ccc([N+](=O)[O-])c(OCC(N)=O)c1", "melting point", "138 to 139 °C"),
    ("Cc1c(NC(=O)c2ccc(OC[C@@H]3CCCO3)cc2F)ccc2cc(CNCC(C)C)cnc12", "melting point", "133 to 134 °C"),
    ("CC(=S)OC1CCN(C(=O)OCc2ccc([N+](=O)[O-])cc2)CC1", "melting point", "106 to 107 °C"),
    ("CCCCCCCCCCCCCCCCOCC(CO)COC(c1ccccc1)(c1ccccc1)c1ccccc1 (stereo not drawn)", "melting point", "38 °C"),
    ("Fc1cccc(CC2(Cc3ccncc3)c3cccnc3-c3ncccc32)n1", "melting point", "180 to 182 °C"),
    ("CNC(=O)Nc1ccc(Oc2cccc(C(F)(F)F)c2)c(Cl)c1", "melting point", "160 °C"),
    ("CC(=O)Oc1ccc(-c2cnc(-c3ccccc3)[nH]c2=O)cc1OC(C)=O", "melting point", "240 °C"),
    ("NCc1cc(-c2ccnc(Nc3cccc(OC(F)(F)C(F)F)c3)n2)ccn1", "melting point", "64 to 67 °C"),
    ("COC(=O)Cn1c(=O)c(=O)[nH]c2ccccc21", "melting point", "269 °C"),
    ("Oc1ccc2cc(-c3cnc(-c4cn(Cc5ccccc5)c5ccccc45)o3)ccc2c1", "melting point", "242 to 244 °C"),
    ("O=C(O)c1cn(C2CC2)c2c(F)c(F)c(Cl)cc2c1=O", "melting point", "200 to 204 °C"),
    ("COCCCN1CCC(CNC(=O)c2cc(Cl)c(N)nc2OC)CC1", "melting point", "103 °C"),
    ("N#Cc1ccc2c(c1)S(=O)(=O)c1ccc(Cl)cc1C=C2", "melting point", "228 to 230 °C"),
    ("CCOC(=S)c1c(CC)nc2ccccn12", "melting point", "71 to 73 °C"),
    ("CN(C)C1(c2ccccc2)CCC2(OCCc3c2[nH]c2ccccc32)C(CCO)C1 (stereo not drawn)", "melting point", "311 to 314 °C"),
    ("C=CCc1c(OC)c(C)c2c(c1OC(C)=O)C(=O)OC2", "melting point", "101 to 102 °C"),
    ("O=C(O)c1cc(-c2ccc3c(c2)CCO3)nn(CCCc2ccccc2Cl)c1=O", "melting point", "137 to 140 °C"),
    ("COc1cc(NN)c(F)cc1C#N", "melting point", "155 to 156 °C"),
    ("O=C1Nc2ccc(Cl)cc2C(C#CC2CC2)(C(F)(F)F)CN1C1CC1 (stereo not drawn)", "melting point", "195 to 196 °C"),
    ("CCCC/C=C/C(=O)N(C)c1ccc(S(=O)(=O)NC2CCCCCC2)cc1", "melting point", "114 °C"),
]
